tgt: T1, RRPPGFSPF-biotin (mouse)
T1 construct: also called DAKLP-b; DAKLP-biotin
T1 peptide: RRPPGFSPF-{Biotin′}
assayOverview: Biacore, biotin-peptide on SA chip;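 further: purified antibodies injected as twofold dilutions from 0.1 to 10 nM in HBS-EP over streptavidin-captured biotinylated BKR1 or BKR2 ligand peptides, with a random-peptide flow cell as reference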
pKd: −log10 of the molar value. Primed or numbered codes have the meaning given here. Ends that are not written are not given here. Biotin′ = not defined here

{"columns": ["binder", "pKd"],
 "data": [
  ["humanized F151 variant HC1/LC1 (antibody, V domains shown, also called LC1xHC1) VH: EIQLVQSGPEVKKPGASVKVSCKASGYSFTDYNIYWVKQSPGKSLEWIGYFDPYNGNTGYNQKFRGKATLTVDKSSSTAFMHLSSLTSEDSAVYYCANYYRYDDHAMDYWGQGTSVTVSS VL: DIVMSQSPSSLAASVGDRVTMSCKSSQSLLYSSNQKNYLAWYQQKPGKSPKPLIYWASTRESGVPDRFTGSGSGTDFTLTISSVQAEDLAIYYCQQYYSYPWTFGGGTKLEIK", 10.80],
  ["humanized F151 variant HC2b/LC2a (antibody, human IgG1, V domains shown, also called LC2axHC2b) VH: QIQLVQSGAEVKKPGASVKVSCKASGYSFTDYNIYWVKQSPGKGLEWIGYFDPYNGNTGYNEKFRGKATLTVDKSSSTAYMHLSSLTSEESAVYYCANYYRYDDHAMDYWGQGTSVTVSS VL: DIVMTQSPSSLSASVGDRVTISCKSSQSLLYSSNQKNYLAWYQQKPGKSPKPLIYWASTRESGVPDRFSGSGSGTDFTLTISSVQAEDLATYYCQQYYSYPWTFGGGTKLEIK", 10.53],
  ["humanized F151 variant HC2a/LC2a (antibody, human IgG1, V domains shown, also called LC2axHC2a) VH: QIQLVQSGAEVKKPGASVKVSCKASGYSFTDYNIYWVKQSPGKGLEWIGYFDPYNGNTGYNQKFRGKATLTVDKSSSTAYMHLSSLTSEESAVYYCANYYRYDDHAMDYWGQGTSVTVSS VL: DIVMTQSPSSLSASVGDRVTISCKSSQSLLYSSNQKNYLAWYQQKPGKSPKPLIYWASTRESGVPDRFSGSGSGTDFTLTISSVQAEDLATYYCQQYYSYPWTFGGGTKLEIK", 10.86],
  ["humanized F151 variant HC2c/LC2b (antibody, human IgG1, V domains shown, also called LC2bxHC2c) VH: QIQLVQSGAEVKKPGASVKVSCKASGYSFTDYNIYWVKQSPGKGLEWIGYFDPYNGNTGYNQKFRGKATLTVDKSSSTAYMHLSSKTSEESAVYYCANYYRYDDHAMDYWGQGTSVTVSS VL: DIVMTQSPSSLSASVGDRVTISCKSSQSLLYSSNQKNYLAWYQQKPGKSPKPLIYWASTRESGVPDRFSGSGSGTDFTLTISSVQAEDKATYYCQQYYSYPWTFGGGTKLEIK", 10.92]
]}
